- Test system: Bacillus subtilis
- Test summary: Antibacterial activity against Bacillus subtilis at 100 ug/disk after 24 hrs by agar disc-diffusion method
- Assay type: functional
- Test conditions: read-out: IZ
In this scheme, each record receives a class according to its zone of inhibition at 100 µg/disc; the ranges are low: < 20 mm; medium: ≥ 20 mm and < 30 mm; high: ≥ 30 mm

Structure string: O=C(O)c1cn(C2CC2)c2cc(N3CCNCC3)c(F)cc2c1=O
Target desc: Bacillus subtilis
Cat: high
//
Structure string: Cc1ccc(S(=O)(=O)c2c[nH]cc2S(=O)(=O)Cc2nnc(S)n2N)cc1
Target desc: Bacillus subtilis
Cat: medium
//
Structure string: O=S(=O)(Cc1nnc(S)s1)c1c[nH]cc1S(=O)(=O)c1ccccc1
Target desc: Bacillus subtilis
Cat: medium
//
Structure string: O=S(=O)(Cc1nnc(S)s1)c1c[nH]cc1S(=O)(=O)c1ccc(Cl)cc1
Target desc: Bacillus subtilis
Cat: medium
//
Structure string: O=S(=O)(Cc1nnc(S)o1)c1c[nH]cc1S(=O)(=O)c1ccc(Cl)cc1
Target desc: Bacillus subtilis
Cat: low
//
Structure string: Nn1c(S)nnc1CS(=O)(=O)c1c[nH]cc1S(=O)(=O)c1ccc(Cl)cc1
Target desc: Bacillus subtilis
Cat: high
//
Structure string: Nn1c(S)nnc1CS(=O)(=O)c1c[nH]cc1S(=O)(=O)c1ccccc1
Target desc: Bacillus subtilis
Cat: high
//
Structure string: Cc1ccc(S(=O)(=O)c2c[nH]cc2S(=O)(=O)Cc2nnc(S)s2)cc1
Target desc: Bacillus subtilis
Cat: low
//
Structure string: Cc1ccc(S(=O)(=O)c2c[nH]cc2S(=O)(=O)Cc2nnc(S)o2)cc1
Target desc: Bacillus subtilis
Cat: low
//
Structure string: O=S(=O)(Cc1nnc(S)o1)c1c[nH]cc1S(=O)(=O)c1ccccc1
Target desc: Bacillus subtilis
Cat: low
